System: Staphylococcus aureus
Assay: Antibacterial activity against tetracycline-resistant Staphylococcus aureus isolate 158 harboring tet(K) gene by CLSI M07-A8 method
Format: functional
In plain terms, low MIC, meaning strictly below 8 µg/mL, gives satisfied, and everything else gives not satisfied.

In [3]: df
Out[3]:
                               entry_smiles     measurement_target    label_value
0  CN(C)[C@@H]1C(O)=C(C(N)=O)C(=O)[C@@]2(O)C(O)=C3C(=O)c4c(O)cncc4C[C@H]3C[C@@H]12.Cl.Cl  Staphylococcus aureus  not satisfied
1  CN(C)c1ccc(O)c2c1C[C@H]1C[C@H]3[C@H](N(C)C)C(O)=C(C(N)=O)C(=O)[C@@]3(O)C(O)=C1C2=O  Staphylococcus aureus      satisfied
2  CN(C)[C@@H]1C(O)=C(C(N)=O)C(=O)[C@@]2(O)C(O)=C3C(=O)c4c(O)c(NC(=O)CNC(C)(C)C)nc(F)c4C[C@H]3C[C@@H]12.Cl.Cl  Staphylococcus aureus  not satisfied
3  CN(C)[C@@H]1C(O)=C(C(N)=O)C(=O)[C@@]2(O)C(O)=C3C(=O)c4c(O)c(NCC(C)(C)CN5CCCC5)nc(Cl)c4C[C@H]3C[C@@H]12.Cl  Staphylococcus aureus      satisfied

Shift focus to the following entry.
Check if MIC falls below 8 µg/mL for `CN(C)CCCNc1nc(Cl)c2c(c1O)C(=O)C1=C(O)[C@]3(O)C(=O)C(C(N)=O)=C(O)[C@@H](N(C)C)[C@@H]3C[C@@H]1C2.Cl` .
satisfied
